Target: Alpha-glucosidase MAL12 (Saccharomyces cerevisiae (strain ATCC 204508 / S288c), UniProt P53341)
Sequence (P53341 whole entry): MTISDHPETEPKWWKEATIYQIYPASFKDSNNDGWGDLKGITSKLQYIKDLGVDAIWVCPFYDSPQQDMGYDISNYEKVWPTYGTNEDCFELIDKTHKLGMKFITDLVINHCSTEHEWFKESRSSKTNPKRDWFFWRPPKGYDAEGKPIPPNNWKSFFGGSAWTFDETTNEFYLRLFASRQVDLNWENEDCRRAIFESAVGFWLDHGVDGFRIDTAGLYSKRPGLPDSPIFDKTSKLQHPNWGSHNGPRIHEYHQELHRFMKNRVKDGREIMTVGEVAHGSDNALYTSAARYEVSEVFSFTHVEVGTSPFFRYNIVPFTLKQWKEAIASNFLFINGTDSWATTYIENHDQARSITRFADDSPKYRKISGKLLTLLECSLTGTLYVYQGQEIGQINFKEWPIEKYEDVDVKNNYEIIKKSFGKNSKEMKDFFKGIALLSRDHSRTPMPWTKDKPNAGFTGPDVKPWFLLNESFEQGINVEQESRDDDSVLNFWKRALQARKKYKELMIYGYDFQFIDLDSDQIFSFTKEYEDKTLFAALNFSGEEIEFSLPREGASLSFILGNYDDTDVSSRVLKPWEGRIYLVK
Assay: α-Glucosidase Inhibitory Activity
ENDPOINT LABEL: IC50 (µM)

Consider the following illustrative entries.
COc1ccc(/C=N/NC(=O)c2cc3ccccc3[nH]2)c(I)c1O yielded IC50 of 54.6

O=C(N/N=C/c1cccc(O)c1O)c1cc2ccccc2[nH]1 yielded IC50 of 86.5

O=C(N/N=C/c1ccc(Cl)cc1)c1cc2ccccc2[nH]1 yielded IC50 of 32.1

O=C(N/N=C/c1ccc(O)cc1)c1cc2ccccc2[nH]1 yielded IC50 of 206

COc1ccc(/C=N/NC(=O)c2cc3ccccc3[nH]2)cc1O yielded IC50 of 191

a. O=C(N/N=C/c1ccccc1O)c1cc2ccccc2[nH]1
b. COc1cc(/C=N/NC(=O)c2cc3ccccc3[nH]2)ccc1O
c. O=C(N/N=C/c1cc(O)cc(O)c1)c1cc2ccccc2[nH]1
d. O=C(N/N=C/c1ccc(F)c(Br)c1)c1cc2ccccc2[nH]1
Q) // ranking: key=IC50, reverse=True Please express your ranking as an ordered list of the labels.
A) c, b, a, d
